- SYSTEM NAME: UniProt:Q08499
- Sequence (Q08499 186-808): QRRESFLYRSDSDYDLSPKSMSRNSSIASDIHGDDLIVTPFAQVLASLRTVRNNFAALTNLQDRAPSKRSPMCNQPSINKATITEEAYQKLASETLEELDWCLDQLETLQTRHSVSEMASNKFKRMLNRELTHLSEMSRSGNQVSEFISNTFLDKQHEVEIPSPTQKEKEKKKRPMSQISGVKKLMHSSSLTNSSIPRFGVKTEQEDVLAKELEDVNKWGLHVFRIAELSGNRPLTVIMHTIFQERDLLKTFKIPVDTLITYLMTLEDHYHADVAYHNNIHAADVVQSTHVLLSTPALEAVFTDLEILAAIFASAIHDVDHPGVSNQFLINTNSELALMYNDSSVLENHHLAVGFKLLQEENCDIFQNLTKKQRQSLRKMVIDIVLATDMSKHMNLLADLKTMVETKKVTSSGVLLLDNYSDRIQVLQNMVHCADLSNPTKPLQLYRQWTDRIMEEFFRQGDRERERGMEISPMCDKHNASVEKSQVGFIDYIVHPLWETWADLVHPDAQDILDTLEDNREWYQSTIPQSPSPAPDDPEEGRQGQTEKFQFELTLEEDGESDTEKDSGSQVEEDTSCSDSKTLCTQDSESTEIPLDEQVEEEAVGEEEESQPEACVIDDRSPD
- TEST NAME: PDE4D3 Scintillation Proximity Assay (SPA), inhibition of enzyme activity
- Format: biochemical
- TEST CONDITIONS: Table 9, geometric mean of 2-9 determinations unless otherwise indicated, read-out: Human PDE4D FL
RECORDED METRIC: IC50 (nM)
Write the value in nM as a bare number.

Below are worked cases with known answers.
# MOLECULE, OUTPUT UNIT, NUMERIC RESULT
data = [
    ("O=C1c2c(-c3ccsc3)c3ncccc3n2CCN1C1CC1", "nM", 1720),
    ("O=C1c2c(-c3ccc(Cl)cc3)c3ncccc3n2CC2CCN12 (stereo not drawn) [Example 67]", "nM", 862),
]

Moving on to the next molecule.
Task: Can you look up the measured IC50 of Cc1cc(C#N)ccc1-c1c2n(c3scnc13)CCN(C1CC1)C2=O for me?
Result: 2090
